Parameter IC50: see the listing below.
Biological target: monoamine oxidase B (MAO-B) (Homo sapiens, UniProt P27338)
Construct: purchased Sigma-Aldrich
Sequence (P27338 whole entry): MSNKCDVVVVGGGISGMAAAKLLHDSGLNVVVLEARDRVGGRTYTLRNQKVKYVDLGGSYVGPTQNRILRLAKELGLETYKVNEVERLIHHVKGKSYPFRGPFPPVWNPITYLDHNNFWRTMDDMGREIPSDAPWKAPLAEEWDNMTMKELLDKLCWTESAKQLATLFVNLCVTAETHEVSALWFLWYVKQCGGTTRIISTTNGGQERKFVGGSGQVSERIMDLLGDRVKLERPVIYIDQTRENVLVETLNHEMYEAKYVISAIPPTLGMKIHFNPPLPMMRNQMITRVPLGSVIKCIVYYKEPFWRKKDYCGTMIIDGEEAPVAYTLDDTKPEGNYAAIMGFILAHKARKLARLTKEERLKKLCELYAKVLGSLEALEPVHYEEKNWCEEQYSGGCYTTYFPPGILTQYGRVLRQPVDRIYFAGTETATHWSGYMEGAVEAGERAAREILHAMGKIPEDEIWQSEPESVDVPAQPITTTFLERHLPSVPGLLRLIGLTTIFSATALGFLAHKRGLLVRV
Assay: Monoamine oxidase inhibition test (MAO-Glo assay kit)
Format: biochemical
Conditions: room temperature, 1 hour
Structures can show the parent of a compound that is named as a salt.

Example cases with answers are listed next.
{"Compound": "O=C(N[C@@H](CCCCNC1CC1c1ccccc1)C(=O)NCc1ccc(Cl)cc1)c1ccc(-c2ccccc2)cc1 (some centres unmarked) [Example 20, Hydrochloride]", "System Tested": "monoamine oxidase B (MAO-B) (Homo sapiens, UniProt P27338)", "Parameter Measured": "IC50", "Endpoint Value": "> 100 µM"}
{"Compound": "NC1CC1c1cccc(OCC[C@H](NC(=O)c2ccccc2)C(=O)NCc2ccccc2)c1 (some centres unmarked) [Comp. Ex. 2, hydrochloride, reference compound]", "System Tested": "monoamine oxidase B (MAO-B) (Homo sapiens, UniProt P27338)", "Parameter Measured": "IC50", "Endpoint Value": "326 µM"}
{"Compound": "O=C(N[C@@H](CCCCNC1CC1c1ccccc1)C(=O)NCc1cccc(Cl)c1)c1ccc(-c2ccccc2)cc1 (some centres unmarked) [Example 21, Hydrochloride]", "System Tested": "monoamine oxidase B (MAO-B) (Homo sapiens, UniProt P27338)", "Parameter Measured": "IC50", "Endpoint Value": "> 100 µM"}
{"Compound": "O=C(N[C@@H](CCCCNC1CC1c1ccccc1)C(=O)NCc1cccc(C(F)(F)F)c1)c1ccc(-c2ccccc2)cc1 (some centres unmarked) [Example 19, Hydrochloride]", "System Tested": "monoamine oxidase B (MAO-B) (Homo sapiens, UniProt P27338)", "Parameter Measured": "IC50", "Endpoint Value": "> 100 µM"}

Could you now consider this next compound?
Q. Sample O=C(N[C@@H](CCCCNC1CC1c1ccccc1)C(=O)NCc1ccccc1)c1ccc(-c2ccccc2)cc1 (some centres unmarked) [Example 8, Hydrochloride] — what was its IC50?
A. > 100 µM

---

Test system: SH-SY5Y cells
Assay: Cancer cell growth inhibition evaluation (MTT assay)
Assay type: cell-based
Settings: Homo sapiens, MTT, read-out: GI50 (μM) SH-SY5Y
Structures can show the parent of a compound that is named as a salt.
Parameter Measured: GI50 (µM)
Write the number in µM without appending the unit.

Worked examples follow.
{"Molecule": "NC1CC1c1ccccc1 (stereo not drawn) [Comp. Ex. 1, trans-2-Phenylcyclopropylamine, reference compound]", "Parameter Measured": "GI50", "Unit Symbol": "µM", "Endpoint Value": 503}
{"Molecule": "O=C(N[C@@H](CCCCNC1CC1c1ccccc1)C(=O)NCc1cccc(F)c1)c1ccc(-c2ccccc2)cc1 (stereo partly shown) [Example 17, Hydrochloride]", "Parameter Measured": "GI50", "Unit Symbol": "µM", "Endpoint Value": 4.1}
{"Molecule": "O=C(N[C@@H](CCCCNC1CC1c1ccccc1)C(=O)NCc1ccc(F)cc1)c1ccc(-c2ccccc2)cc1 (stereo partly shown) [Example 13, Hydrochloride]", "Parameter Measured": "GI50", "Unit Symbol": "µM", "Endpoint Value": 3.9}
{"Molecule": "Cc1cccc(CNC(=O)[C@H](CCCCNC2CC2c2ccccc2)NC(=O)c2ccc(-c3ccccc3)cc2)c1 (stereo partly shown) [Example 16, Hydrochloride]", "Parameter Measured": "GI50", "Unit Symbol": "µM", "Endpoint Value": 2.3}
{"Molecule": "Cc1ccc(CNC(=O)[C@H](CCCCNC2CC2c2ccccc2)NC(=O)c2ccc(-c3ccccc3)cc2)cc1 (stereo partly shown) [Example 12, Hydrochloride]", "Parameter Measured": "GI50", "Unit Symbol": "µM", "Endpoint Value": 3.5}
{"Molecule": "O=C(N[C@@H](CCCCNC1CC1c1ccccc1)C(=O)NCc1ccc(-c2ccccc2)cc1)c1ccc(-c2ccccc2)cc1 (stereo partly shown) [Example 14, Hydrochloride]", "Parameter Measured": "GI50", "Unit Symbol": "µM", "Endpoint Value": 6.4}

# evaluate next
Q. // returns reported GI50 for input O=C(N[C@@H](CCCCNC1CC1c1ccccc1)C(=O)NCc1ccccc1)c1ccc(C(F)(F)F)cc1 (stereo partly shown) [Example 9, Hydrochloride]
A. 5.4

---

Test system: SH-SY5Y cells
Experiment: Cancer cell growth inhibition evaluation (MTT assay)
Assay type: cell-based
Conditions: Homo sapiens, MTT, read-out: GI50 (μM) SH-SY5Y
Counter-ions that a name gives are not always drawn.
Collected GI50 values appear next to each entry.
Give the value, in units of µM, as a plain number.

Known results for compounds:
{"Compound": "O=C(N[C@@H](CCCCNC1CC1c1ccccc1)C(=O)NCc1ccccc1)c1ccc(Cl)cc1 (stereo partly shown) [Example 6, Hydrochloride]", "Unit Symbol": "µM", "GI50": 11}
{"Compound": "CC(C)(C)c1ccc(CNC(=O)[C@H](CCCCNC2CC2c2ccccc2)NC(=O)c2ccc(-c3ccccc3)cc2)cc1 (stereo partly shown)", "Unit Symbol": "µM", "GI50": 2.7}
{"Compound": "CC(C)(C)c1ccc(C(=O)N[C@@H](CCCCNC2CC2c2ccccc2)C(=O)NCc2ccccc2)cc1 (stereo partly shown) [Example 5, Hydrochloride]", "Unit Symbol": "µM", "GI50": 4.8}

Q. State the recorded GI50 for this entry: O=C(N[C@@H](CCCCNC1CC1c1ccccc1)C(=O)NCc1cccc(-c2ccccc2)c1)c1ccc(-c2ccccc2)cc1 (stereo partly shown) [Example 18, Hydrochloride]
A. 3.8

---

Target: monoamine oxidase A (MAO-A) (Homo sapiens)
Construct: purchased Sigma-Aldrich
Sequence (P21397 whole entry): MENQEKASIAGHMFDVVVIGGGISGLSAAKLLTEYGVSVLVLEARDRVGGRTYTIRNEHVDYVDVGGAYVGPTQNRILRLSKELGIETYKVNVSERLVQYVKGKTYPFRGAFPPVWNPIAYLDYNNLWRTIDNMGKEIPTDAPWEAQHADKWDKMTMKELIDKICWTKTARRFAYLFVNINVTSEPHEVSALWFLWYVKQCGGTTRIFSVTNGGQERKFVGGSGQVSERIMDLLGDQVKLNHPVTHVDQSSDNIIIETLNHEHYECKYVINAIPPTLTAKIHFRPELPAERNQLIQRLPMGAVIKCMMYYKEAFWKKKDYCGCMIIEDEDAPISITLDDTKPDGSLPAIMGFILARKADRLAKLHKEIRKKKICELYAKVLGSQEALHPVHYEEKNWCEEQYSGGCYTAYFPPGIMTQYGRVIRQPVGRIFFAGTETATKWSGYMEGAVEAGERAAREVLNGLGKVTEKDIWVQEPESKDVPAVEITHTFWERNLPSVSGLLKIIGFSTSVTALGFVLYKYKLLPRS
Assay: Monoamine oxidase inhibition test (MAO-Glo assay kit)
Type: biochemical
Conditions: room temperature, 1 hour
Counter-ions that a name gives are not always drawn.
This section presents molecules with their documented IC50 values.
Reply numerically in µM, unit not repeated.

{"Molecule": "O=C(N[C@@H](CCCCNC1CC1c1ccccc1)C(=O)NCc1ccccc1)c1ccc(-c2ccccc2)cc1 (some centres unmarked) [Example 8, Hydrochloride]", "System Tested": "monoamine oxidase A (MAO-A) (Homo sapiens)", "IC50, µM": 86}

# next molecule below
Q. What IC50 value was documented for this molecule, NC1CC1c1cccc(OCC[C@H](NC(=O)c2ccccc2)C(=O)NCc2ccccc2)c1 (some centres unmarked) [Comp. Ex. 2, hydrochloride, reference compound] ?
A. 129

---

Structures can show the parent of a compound that is named as a salt.
# maps each entry to its melting point

Reference set, count: 5
{"Compound": "O=C(N[C@@H](CCCCNC1CC1c1ccccc1)C(=O)NCc1ccccc1)c1ccc(Cl)cc1 (stereo partly shown) (as salt: hydrochloride)", "Endpoint Value": "107 to 109 °C"}
{"Compound": "O=C(N[C@@H](CCCCNC1CC1c1ccccc1)C(=O)NCc1ccc(-c2ccccc2)cc1)c1ccc(-c2ccccc2)cc1 (stereo partly shown) (as salt: hydrochloride)", "Endpoint Value": "139 to 140 °C"}
{"Compound": "O=C(N[C@@H](CCCCNC1CC1c1ccccc1)C(=O)NCc1ccc(F)cc1)c1ccc(-c2ccccc2)cc1 (stereo partly shown) (as salt: hydrochloride)", "Endpoint Value": "95 to 96 °C"}
{"Compound": "O=C(N[C@@H](CCCCNC1CC1c1ccccc1)C(=O)NCc1cccc(C(F)(F)F)c1)c1ccc(-c2ccccc2)cc1 (stereo partly shown) (as salt: hydrochloride)", "Endpoint Value": "129 to 130 °C"}
{"Compound": "O=C(N[C@@H](CCCCNC1CC1c1ccccc1)C(=O)NCc1ccccc1)c1ccc(C(F)(F)F)cc1 (stereo partly shown) (as salt: hydrochloride)", "Endpoint Value": "98 to 101 °C"}

Q. Would you mind telling me what melting point value was observed for Cc1ccc(CNC(=O)[C@H](CCCCNC2CC2c2ccccc2)NC(=O)c2ccc(-c3ccccc3)cc2)cc1 (stereo partly shown) (as salt: hydrochloride) ?
A. 117 to 118 °C

Q. # query: melting point of entry O=C(N[C@@H](CCCCNC1CC1c1ccccc1)C(=O)NCc1ccccc1)c1ccc(F)cc1 (stereo partly shown) (as salt: hydrochloride)
A. 90 to 91 °C

Q. What value of measured melting point is listed for O=C(N[C@@H](CCCCNC1CC1c1ccccc1)C(=O)NCc1ccccc1)c1ccc(-c2ccccc2)cc1 (stereo partly shown) (as salt: hydrochloride) ?
A. 143 to 146 °C

Q. Would you mind telling me what melting point value was observed for Cc1cccc(CNC(=O)[C@H](CCCCNC2CC2c2ccccc2)NC(=O)c2ccc(-c3ccccc3)cc2)c1 (stereo partly shown) (as salt: hydrochloride) ?
A. 101 to 103 °C

Q. Dear colleague, I am looking for the recorded melting point of the following compound: CC(C)(C)c1ccc(C(=O)N[C@@H](CCCCNC2CC2c2ccccc2)C(=O)NCc2ccccc2)cc1 (stereo partly shown) (as salt: hydrochloride)
A. 101 to 103 °C

---

Molecular target: LSD1 (Homo sapiens)
Construct: five histidine residues added to the N-terminus of full-length LSD1 (1-851aa); 5xHis (five histidine residues) (N); made in house; host or cells: Escherichia coli
Test: LSD1 inhibition test (peroxidase-coupled absorbance assay)
Assay type: biochemical
Conditions: 25° C., 30 minutes, histone H3-lysine 4 dimethyl peptide
Structures can show the parent of a compound that is named as a salt.
Parameter Measured: IC50 (µM)
Number in µM, nothing else.

{"Molecule": "O=C(N[C@@H](CCCCNC1CC1c1ccccc1)C(=O)NCc1ccccc1)c1cccc(C(=O)N2CCNCC2)c1 (stereo partly shown)", "Unit Symbol": "µM", "IC50": 0.25}

Q. Recorded IC50 for CC(C)(C)OC(=O)N[C@@H](CCCCNC1CC1c1ccccc1)C(=O)NCc1ccccc1 (stereo partly shown) , please?
A. 1.2

Q. What does the record list as IC50 for NCCNC(=O)c1cccc(C(=O)N[C@@H](CCCCNC2CC2c2ccccc2)C(=O)NCc2ccccc2)c1 (stereo partly shown) ?
A. 0.1

Q. I am curious: what IC50 value has been reported for O=C(N[C@@H](CCCCNC1CC1c1ccccc1)C(=O)NCc1ccc(F)cc1)c1ccc(-c2ccccc2)cc1 (stereo partly shown) [Example 13, Hydrochloride] ?
A. 0.75

Q. Which IC50 value is on record for O=C(N[C@@H](CCCCNC1CC1c1ccccc1)C(=O)NCc1ccccc1)c1ccc(C(F)(F)F)cc1 (stereo partly shown) [Example 9, Hydrochloride] ?
A. 0.38

Q. For the molecule CC(C)(C)c1ccc(CNC(=O)[C@H](CCCCNC2CC2c2ccccc2)NC(=O)c2ccc(-c3ccccc3)cc2)cc1 (stereo partly shown) , what IC50 is on record?
A. 1.2

Q. Given the molecule O=C(N[C@@H](CCCCNC1CC1c1ccccc1)C(=O)NCc1ccc(-c2ccccc2)cc1)c1ccc(-c2ccccc2)cc1 (stereo partly shown) [Example 14, Hydrochloride] , what is its reported IC50?
A. 2.7

Q. Return reported IC50; argument: Cc1cccc(CNC(=O)[C@H](CCCCNC2CC2c2ccccc2)NC(=O)c2ccc(-c3ccccc3)cc2)c1 (stereo partly shown) [Example 16, Hydrochloride]
A. 0.68

Q. Which IC50 is reported for this molecule? O=C(N[C@@H](CCCCNC1CC1c1ccccc1)C(=O)NCc1ccccc1)c1ccc(F)cc1 (stereo partly shown) [Example 7, Hydrochloride]
A. 0.25

Q. Find the recorded IC50 belonging to Cc1ccc(C(=O)N[C@@H](CCCCNC2CC2c2ccccc2)C(=O)NCc2ccccc2)cc1 (stereo partly shown) and report it.
A. 0.44

Q. // query IC50 value for entry O=C(N[C@@H](CCCCNC1CC1c1ccccc1)C(=O)NCc1cccc(-c2ccccc2)c1)c1ccc(-c2ccccc2)cc1 (stereo partly shown) [Example 18, Hydrochloride]
A. 0.98

Q. Query (molecule): CC(C)(C)c1ccc(C(=O)N[C@@H](CCCCNC2CC2c2ccccc2)C(=O)NCc2ccccc2)cc1 (stereo partly shown) [Example 5, Hydrochloride] ; field requested: IC50
A. 0.79

Q. Look at this molecule and give its reported IC50. Cc1ccc(CNC(=O)[C@H](CCCCNC2CC2c2ccccc2)NC(=O)c2ccc(-c3ccccc3)cc2)cc1 (stereo partly shown) [Example 12, Hydrochloride]
A. 0.6

Q. Item under review: O=C(N[C@@H](CCCCNC1CC1c1ccccc1)C(=O)NCc1ccccc1)c1ccc(Cl)cc1 (stereo partly shown) [Example 6, Hydrochloride] . Reported IC50?
A. 0.2

Q. Item N[C@@H](CCCCNC1CC1c1ccccc1)C(=O)NCc1ccccc1 (stereo partly shown) [Example 3, Dihydrochloride] has what recorded IC50?
A. 0.06

Q. Value lookup for IC50; key = O=C(N[C@@H](CCCCNC1CC1c1ccccc1)C(=O)NCc1cccc(F)c1)c1ccc(-c2ccccc2)cc1 (stereo partly shown) [Example 17, Hydrochloride]
A. 0.67
